Entries and their measured mCrhr1 Luciferase Reporter Assay IC50 follow.
- target under test: T1, corticotropin-releasing hormone (CRH) peptide (human and mouse (same sequence), not fully specified)
- T1 peptide: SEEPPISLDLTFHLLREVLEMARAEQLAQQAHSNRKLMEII
- measurement protocol: cell-based or functional assay

{"binder": "PR006149 (antibody, human IgG1, kappa, V domains shown, PTM-removal variant of PR004290) VH: EVQLVESGGVLVQPGGSLRLSCAASGFTFSSYWMTWVRQAPGKGLEWVANIKQDASEKYYVDSVKGRFTISRDNAKNSLFLQMNSLRAEDTAVYYCARTLIFDYWGQGTLVTVSS VL: DIVMTQSPLSLPVTPGEPASISCRSSQSLLHSTGYSSLEWYLQKPGQSPQLLIYLGSNRASGVPDRFSGSGSGTDFTLKISRVEAEDVGIYYCMQTLQTPITFGQGTRLEIKR", "mCrhr1 Luciferase Reporter Assay IC50 / nM": 40.1}
{"binder": "PR005662 (antibody, human IgG1, kappa, V domains shown, PTM-removal variant of PR004290) VH: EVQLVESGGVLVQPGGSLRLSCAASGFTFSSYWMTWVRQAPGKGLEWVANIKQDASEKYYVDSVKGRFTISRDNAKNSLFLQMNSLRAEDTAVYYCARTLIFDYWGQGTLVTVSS VL: DIVMTQSPLSLPVTPGEPASISCRSSQSLLHSTGYQSLEWYLQKPGQSPQLLIYLGSNRASGVPDRFSGSGSGTDFTLKISRVEAEDVGIYYCMQTLQTPITFGQGTRLEIKR", "mCrhr1 Luciferase Reporter Assay IC50 / nM": 42.4}
{"binder": "PR006151 (antibody, human IgG1, kappa, V domains shown, PTM-removal variant of PR004290) VH: EVQLVESGGVLVQPGGSLRLSCAASGFTFSSYWMTWVRQAPGKGLEWVANIKQDSSEKYYVDSVKGRFTISRDNAKNSLFLQMNSLRAEDTAVYYCARTLIFDYWGQGTLVTVSS VL: DIVMTQSPLSLPVTPGEPASISCRSSQSLLHSTGYHSLEWYLQKPGQSPQLLIYLGSNRASGVPDRFSGSGSGTDFTLKISRVEAEDVGIYYCMQTLQTPITFGQGTRLEIKR", "mCrhr1 Luciferase Reporter Assay IC50 / nM": 57.6}
{"binder": "PR006153 (antibody, human IgG1, kappa, V domains shown, PTM-removal variant of PR004290) VH: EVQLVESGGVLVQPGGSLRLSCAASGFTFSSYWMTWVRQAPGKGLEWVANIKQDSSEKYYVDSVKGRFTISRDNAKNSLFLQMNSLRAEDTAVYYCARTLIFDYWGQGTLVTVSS VL: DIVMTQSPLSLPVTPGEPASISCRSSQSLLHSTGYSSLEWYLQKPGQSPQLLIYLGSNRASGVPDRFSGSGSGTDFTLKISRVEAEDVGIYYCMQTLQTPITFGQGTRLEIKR", "mCrhr1 Luciferase Reporter Assay IC50 / nM": 39.5}
{"binder": "PR006147 (antibody, human IgG1, kappa, V domains shown, PTM-removal variant of PR004290) VH: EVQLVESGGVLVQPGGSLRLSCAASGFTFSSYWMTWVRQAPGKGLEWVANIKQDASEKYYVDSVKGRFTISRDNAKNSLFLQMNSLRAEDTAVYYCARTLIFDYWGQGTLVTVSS VL: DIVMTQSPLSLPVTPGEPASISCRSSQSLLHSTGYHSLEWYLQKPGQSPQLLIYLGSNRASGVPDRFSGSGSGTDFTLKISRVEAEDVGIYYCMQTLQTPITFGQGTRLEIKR", "mCrhr1 Luciferase Reporter Assay IC50 / nM": 39.9}
{"binder": "PR006148 (antibody, human IgG1, kappa, V domains shown, PTM-removal variant of PR004290) VH: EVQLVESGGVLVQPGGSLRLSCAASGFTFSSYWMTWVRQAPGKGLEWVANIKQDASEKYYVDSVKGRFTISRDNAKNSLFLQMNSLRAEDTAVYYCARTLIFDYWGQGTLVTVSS VL: DIVMTQSPLSLPVTPGEPASISCRSSQSLLHSTGYNPLEWYLQKPGQSPQLLIYLGSNRASGVPDRFSGSGSGTDFTLKISRVEAEDVGIYYCMQTLQTPITFGQGTRLEIKR", "mCrhr1 Luciferase Reporter Assay IC50 / nM": 4.87}
{"binder": "PR005656 (antibody, human IgG1, kappa, V domains shown, PTM-removal variant of PR004290) VH: EVQLVESGGVLVQPGGSLRLSCAASGFTFSSYWMTWVRQAPGKGLEWVANIKQEGSEKYYVDSVKGRFTISRDNAKNSLFLQMNSLRAEDTAVYYCARTLIFDYWGQGTLVTVSS VL: DIVMTQSPLSLPVTPGEPASISCRSSQSLLHSTGYNSLEWYLQKPGQSPQLLIYLGSNRASGVPDRFSGSGSGTDFTLKISRVEAEDVGIYYCMQTLQTPITFGQGTRLEIKR", "mCrhr1 Luciferase Reporter Assay IC50 / nM": 4.26}
{"binder": "PR006150 (antibody, human IgG1, kappa, V domains shown, PTM-removal variant of PR004290) VH: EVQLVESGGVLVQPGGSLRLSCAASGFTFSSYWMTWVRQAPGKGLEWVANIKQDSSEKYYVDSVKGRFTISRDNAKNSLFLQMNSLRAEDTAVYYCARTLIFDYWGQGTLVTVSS VL: DIVMTQSPLSLPVTPGEPASISCRSSQSLLHSTGYDSLEWYLQKPGQSPQLLIYLGSNRASGVPDRFSGSGSGTDFTLKISRVEAEDVGIYYCMQTLQTPITFGQGTRLEIKR", "mCrhr1 Luciferase Reporter Assay IC50 / nM": 18.3}
{"binder": "PR006146 (antibody, human IgG1, kappa, V domains shown, PTM-removal variant of PR004290) VH: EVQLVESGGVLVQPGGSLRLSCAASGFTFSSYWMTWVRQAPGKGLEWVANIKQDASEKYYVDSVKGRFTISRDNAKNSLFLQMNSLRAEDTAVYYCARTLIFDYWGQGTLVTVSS VL: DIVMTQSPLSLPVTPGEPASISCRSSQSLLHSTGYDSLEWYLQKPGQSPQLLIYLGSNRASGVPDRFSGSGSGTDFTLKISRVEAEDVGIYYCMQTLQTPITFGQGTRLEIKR", "mCrhr1 Luciferase Reporter Assay IC50 / nM": 18}
{"binder": "PR005660 (antibody, human IgG1, kappa, V domains shown, PTM-removal variant of PR004290) VH: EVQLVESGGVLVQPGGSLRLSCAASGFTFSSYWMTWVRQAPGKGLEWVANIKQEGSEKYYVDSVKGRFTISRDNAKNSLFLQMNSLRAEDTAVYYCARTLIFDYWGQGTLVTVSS VL: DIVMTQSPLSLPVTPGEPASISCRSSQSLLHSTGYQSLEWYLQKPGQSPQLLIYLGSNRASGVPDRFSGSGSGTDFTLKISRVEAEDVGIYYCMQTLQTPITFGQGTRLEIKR", "mCrhr1 Luciferase Reporter Assay IC50 / nM": 29}

The reported measurements were obtained from patent US20260042834A1.
